Test system: HOP-62 multicell spheroids with HUVEC/MSC, viability
Assay Procedure: Anticancer human tumor HOP-62 cell line growth inhibition [KRAS2];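 also: viability read after a week of compound exposure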;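 as to viability, T/C: 100% = DMSO vehicle-treated spheroids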
Condition Context: second compound 0.1 µM; first compound 0.1 µM; stronger effect = lower value
The compounds listed here are annotated with their viability, T/C.
# value in %; strip the unit string

{"columns": ["Compound", "Measurement Target", "Result Value"],
 "data": [
  ["O=C(c1cc(Cc2n[nH]c(=O)c3ccccc23)ccc1F)N1CCN(C(=O)C2CC2)CC1 + CC1OCC2(CCN(c3cnc(Sc4ccnc(N)c4Cl)c(N)n3)CC2)C1N", "HOP-62 multicell spheroids with HUVEC/MSC, viability", 84.3],
  ["CC(C)NCC(C(=O)N1CCN(c2ncnc3c2C(C)CC3O)CC1)c1ccc(Cl)cc1 (stereo not drawn) + CNCc1ccccc1-c1csc(C(C)Nc2nc(C)nc3cc(OC)c(OC)cc23)c1", "HOP-62 multicell spheroids with HUVEC/MSC, viability", 83]
]}

Let us move to another entry and its viability, T/C.
I have this compound here, CC1OCC2(CCN(c3cnc(Sc4ccnc(N)c4Cl)c(N)n3)CC2)C1N (stereo not drawn) + C=CC(=O)N1CCN(c2nc(=O)n(-c3c(C)ccnc3C(C)C)c3nc(-c4c(O)cccc4F)c(F)cc23)C(C)C1 , and I need its recorded viability, T/C.
39.1

====

Test system: HOP-62 multicell spheroids with HUVEC/MSC, viability
Assay Procedure: Anticancer human tumor HOP-62 cell line growth inhibition [KRAS2];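 also: viability read after a week of compound exposure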
Condition Context: curve of first compound; second compound 0.316 µM
pIC50: −log10 of the molar value.
Label rule, in plain words: pIC50 of 7 and up is True, under 7 is False.

Worked set:
{"columns": ["Compound", "Measurement Target", "Classification"],
 "data": [
  ["CC(C)n1nc(-c2ccc3oc(N)nc3c2)c2c(N)ncnc21 + CNCc1ccccc1-c1csc(C(C)Nc2nc(C)nc3cc(OC)c(OC)cc23)c1", "HOP-62 multicell spheroids with HUVEC/MSC, viability", "True"],
  ["CC(C)n1nc(-c2ccc3oc(N)nc3c2)c2c(N)ncnc21 + COc1cc2nc(C)nc(NC(C)c3cc(N)cc(C(F)(F)F)c3)c2cc1OC1CCOC1", "HOP-62 multicell spheroids with HUVEC/MSC, viability", "True"],
  ["COc1cc2nccc(Oc3ccc(NC(=O)C4(C(=O)Nc5ccc(F)cc5)CC4)cc3)c2cc1OC + C=CC(=O)N1CCN(c2nc(=O)n(-c3c(C)ccnc3C(C)C)c3nc(-c4c(O)cccc4F)c(F)cc23)C(C)C1", "HOP-62 multicell spheroids with HUVEC/MSC, viability", "False"]
]}

Here is another compound to look at.
Please tell me: is the compound CC1OCC2(CCN(c3cnc(Sc4ccnc(N)c4Cl)c(N)n3)CC2)C1N (stereo unspecified) + COc1cc2nc(C)nc(NC(C)c3cc(N)cc(C(F)(F)F)c3)c2cc1OC1CCOC1 at or over 7 in terms of pIC50?
False

====

The compounds listed here are annotated with their viability, T/C.
Tested on: HOP-62 multicell spheroids with HUVEC/MSC, viability
Assay Procedure: Anticancer human tumor HOP-62 cell line growth inhibition [KRAS2];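 also: viability read after a week of compound exposure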;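 as to viability, T/C: 100% = DMSO vehicle-treated spheroids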
Condition Context: second compound 0.316 µM; first compound 0.316 µM; stronger effect = lower value
From the text: Multicellular complex tumor spheroid response to RAS pathway inhibitors in combination with a targeted agents in patient-derived cell lines with oncogenic KRAS variants from multiple cancer types A high-throughput screen of multi-cell type tumor spheroids was designed to identify active combinations of targeted small molecules and KRAS pathway inhibitors. […] Compounds. […] If the clinical Cmax for an agent had not been determined, the highest concentration tested was 10 microM. […]
# value in %; strip the unit string

{"columns": ["Compound", "Result Value"],
 "data": [
  ["CC1(C)CCC(CN2CCN(c3ccc(C(=O)NS(=O)(=O)c4ccc(NCC5CCOCC5)c([N+](=O)[O-])c4)c(Oc4cnc5[nH]ccc5c4)c3)CC2)=C(c2ccc(Cl)cc2)C1 + C=CC(=O)N1CCN(c2nc(=O)n(-c3c(C)ccnc3C(C)C)c3nc(-c4c(O)cccc4F)c(F)cc23)C(C)C1", 57.7]
]}

I have this compound here, COC(=O)c1ccc2c(C(=Nc3ccc(N(C)C(=O)CN4CCN(C)CC4)cc3)c3ccccc3)c(O)[nH]c2c1 + COc1cc2nc(C)nc(NC(C)c3cc(N)cc(C(F)(F)F)c3)c2cc1OC1CCOC1 , and I need its recorded viability, T/C.
51.5

Cn1nccc1Nc1nccc(-c2cc3c(s2)C(C)(C)N(CCN2CCOCC2)C3=O)n1 + CNCc1ccccc1-c1csc(C(C)Nc2nc(C)nc3cc(OC)c(OC)cc23)c1 , same question.
77.1

====

The compounds listed here are annotated with their viability, T/C.
Tested on: HOP-62 multicell spheroids with HUVEC/MSC, viability
Assay Procedure: Anticancer human tumor HOP-62 cell line growth inhibition [KRAS2];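 also: viability read after a week of compound exposure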;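 as to viability, T/C: 100% = DMSO vehicle-treated spheroids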
Condition Context: second compound 3.16 µM; first compound 0.0316 µM; stronger effect = lower value
# value in %; strip the unit string

{"columns": ["Compound", "viability, T/C, %"],
 "data": [
  ["CC(=O)OC12COC1CC(O)C1(C)C(=O)C(O)C3=C(C)C(OC(=O)C(O)C(NC(=O)OC(C)(C)C)c4ccccc4)CC(O)(C(OC(=O)c4ccccc4)C21)C3(C)C (configuration not stated) + C=CC(=O)N1CCN(c2nc(=O)n(-c3c(C)ccnc3C(C)C)c3nc(-c4c(O)cccc4F)c(F)cc23)C(C)C1", 25.4]
]}

Let us move to another entry and its viability, T/C.
I have this compound here, CC(C)NCC(C(=O)N1CCN(c2ncnc3c2C(C)CC3O)CC1)c1ccc(Cl)cc1 (configuration not stated) + COc1cc2nc(C)nc(NC(C)c3cc(N)cc(C(F)(F)F)c3)c2cc1OC1CCOC1 , and I need its recorded viability, T/C.
63.1

====

Test system: HOP-62 multicell spheroids with HUVEC/MSC, viability
Assay Procedure: Anticancer human tumor HOP-62 cell line growth inhibition [KRAS2]; active = viability on the fitted dose curve at most 10% of control; inactive = the rest;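 also: viability read after a week of compound exposure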
Condition Context: second compound 3.16 µM; first compound 3.16 µM
Allowed answers: active, inactive

{"columns": ["Compound", "Classification"],
 "data": [
  ["CC(=O)OC12COC1CC(O)C1(C)C(=O)C(O)C3=C(C)C(OC(=O)C(O)C(NC(=O)OC(C)(C)C)c4ccccc4)CC(O)(C(OC(=O)c4ccccc4)C21)C3(C)C (stereo not given) + CNCc1ccccc1-c1csc(C(C)Nc2nc(C)nc3cc(OC)c(OC)cc23)c1", "active"],
  ["CC1OCC2(CCN(c3cnc(Sc4ccnc(N)c4Cl)c(N)n3)CC2)C1N (stereo not given) + C=CC(=O)N1CCN(c2nc(=O)n(-c3c(C)ccnc3C(C)C)c3nc(-c4c(O)cccc4F)c(F)cc23)C(C)C1", "inactive"],
  ["COc1cc2nccc(Oc3ccc(NC(=O)C4(C(=O)Nc5ccc(F)cc5)CC4)cc3)c2cc1OC + CC1OCC2(CCN(c3cnc(Sc4ccnc(N)c4Cl)c(N)n3)CC2)C1N", "inactive"],
  ["CCNC(=O)CC1N=C(c2ccc(Cl)cc2)c2cc(OC)ccc2-n2c(C)nnc21 (stereo not given) + C=CC(=O)N1CCN(c2nc(OCC3CCCN3C)nc3c2CCN(c2cccc4cccc(C)c24)C3)CC1CC#N", "active"]
]}

Could you please tell me the result logged for CC1(C)CCC(CN2CCN(c3ccc(C(=O)NS(=O)(=O)c4ccc(NCC5CCOCC5)c([N+](=O)[O-])c4)c(Oc4cnc5[nH]ccc5c4)c3)CC2)=C(c2ccc(Cl)cc2)C1 + CC1OCC2(CCN(c3cnc(Sc4ccnc(N)c4Cl)c(N)n3)CC2)C1N in this assay?
inactive

CC1COCCN1c1cc(-c2ccnn2C)c2ccnc(-c3ccn[nH]3)c2n1 (stereo not given) + C=CC(=O)N1CCN(c2nc(OCC3CCCN3C)nc3c2CCN(c2cccc4cccc(C)c24)C3)CC1CC#N , same question.
active

CC(C)NCC(C(=O)N1CCN(c2ncnc3c2C(C)CC3O)CC1)c1ccc(Cl)cc1 (stereo not given) + CC1OCC2(CCN(c3cnc(Sc4ccnc(N)c4Cl)c(N)n3)CC2)C1N , same question.
active

====

The compounds listed here are annotated with their viability, T/C.
Test system: HOP-62 multicell spheroids with HUVEC/MSC, viability
Assay Procedure: Anticancer human tumor HOP-62 cell line growth inhibition [KRAS2];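 also: viability read after a week of compound exposure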;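 as to viability, T/C: 100% = DMSO vehicle-treated spheroids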
Condition Context: second compound 3.16 µM; first compound 0.01 µM; stronger effect = lower value
# value in %; strip the unit string

Kindly state the measured viability, T/C obtained for CN(C)C/C=C/C(=O)Nc1cc2c(Nc3ccc(F)c(Cl)c3)ncnc2cc1O[C@H]1CCOC1 + COc1cc2nc(C)nc(NC(C)c3cc(N)cc(C(F)(F)F)c3)c2cc1OC1CCOC1 with HOP-62 multicell spheroids with HUVEC/MSC, viability.
64.2

Cn1ncnc1[C@H]1c2n[nH]c(=O)c3cc(F)cc(c23)N[C@@H]1c1ccc(F)cc1 + COc1cc2nc(C)nc(NC(C)c3cc(N)cc(C(F)(F)F)c3)c2cc1OC1CCOC1 , same question.
58.1

CC(=O)OC12COC1CC(O)C1(C)C(=O)C(O)C3=C(C)C(OC(=O)C(O)C(NC(=O)OC(C)(C)C)c4ccccc4)CC(O)(C(OC(=O)c4ccccc4)C21)C3(C)C (stereo not given) + C=CC(=O)N1CCN(c2nc(OCC3CCCN3C)nc3c2CCN(c2cccc4cccc(C)c24)C3)CC1CC#N , same question.
27.7

CC(C)n1nc(-c2ccc3oc(N)nc3c2)c2c(N)ncnc21 + COc1cc2nc(C)nc(NC(C)c3cc(N)cc(C(F)(F)F)c3)c2cc1OC1CCOC1 , same question.
17.3

CC(=O)Nc1cccc(-n2c(=O)n(C3CC3)c(=O)c3c(Nc4ccc(I)cc4F)n(C)c(=O)c(C)c32)c1 + C=CC(=O)N1CCN(c2nc(=O)n(-c3c(C)ccnc3C(C)C)c3nc(-c4c(O)cccc4F)c(F)cc23)C(C)C1 , same question.
26.2

CC(C)n1nc(-c2ccc3oc(N)nc3c2)c2c(N)ncnc21 + C=CC(=O)N1CCN(c2nc(OCC3CCCN3C)nc3c2CCN(c2cccc4cccc(C)c24)C3)CC1CC#N , same question.
0.44

CN(C)C/C=C/C(=O)Nc1cc2c(Nc3ccc(F)c(Cl)c3)ncnc2cc1O[C@H]1CCOC1 + CC1OCC2(CCN(c3cnc(Sc4ccnc(N)c4Cl)c(N)n3)CC2)C1N , same question.
53.3

Cn1ncnc1[C@H]1c2n[nH]c(=O)c3cc(F)cc(c23)N[C@@H]1c1ccc(F)cc1 + CNCc1ccccc1-c1csc(C(C)Nc2nc(C)nc3cc(OC)c(OC)cc23)c1 , same question.
0.21

CN(C)C/C=C/C(=O)Nc1cc2c(Nc3ccc(F)c(Cl)c3)ncnc2cc1O[C@H]1CCOC1 + C=CC(=O)N1CCN(c2nc(OCC3CCCN3C)nc3c2CCN(c2cccc4cccc(C)c24)C3)CC1CC#N , same question.
6.01

CC(C)n1nc(-c2ccc3oc(N)nc3c2)c2c(N)ncnc21 + C=CC(=O)N1CCN(c2nc(=O)n(-c3c(C)ccnc3C(C)C)c3nc(-c4c(O)cccc4F)c(F)cc23)C(C)C1 , same question.
18.6
